- system: human CD74, naturally expressed on cells (Raji, Daudi, M4A4, NCI-H747 cells; human tonsil tissue) (human) (UniProt P04233)
- assay name: cell-based or functional assay
So I've got a bunch of binders here, and I need their IC50 of killing of Daudi cells values.
Kindly answer with a numeric value in µg/mL, unit omitted.

Which IC50 of killing of Daudi cells value belongs to HuMab-CD74-006-vcMMAE (antibody, IgG1, V domains shown, drug-linker vcMMAE alkylated to the cysteines of the reduced antibody (DAR 4.0), Antibody-drug conjugate of HuMab-CD74-006 (IgG1,kappa); also called vcMMAE-conjugated HuMab-CD74-006) VH: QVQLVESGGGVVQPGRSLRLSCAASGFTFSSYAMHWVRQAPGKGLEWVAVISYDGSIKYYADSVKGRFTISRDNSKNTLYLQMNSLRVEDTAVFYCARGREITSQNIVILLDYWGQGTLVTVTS VL: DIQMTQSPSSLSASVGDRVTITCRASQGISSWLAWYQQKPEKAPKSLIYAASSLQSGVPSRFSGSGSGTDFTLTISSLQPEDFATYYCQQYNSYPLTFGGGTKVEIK ?
0.03

Please do the same for HuMab-CD74-005-vcMMAE (antibody, IgG1, V domains shown, drug-linker vcMMAE alkylated to the cysteines of the reduced antibody (DAR 3.9-4.0), Antibody-drug conjugate of HuMab-CD74-005 (IgG1,kappa); also called vcMMAE-conjugate of HuMab-CD74-005) VH: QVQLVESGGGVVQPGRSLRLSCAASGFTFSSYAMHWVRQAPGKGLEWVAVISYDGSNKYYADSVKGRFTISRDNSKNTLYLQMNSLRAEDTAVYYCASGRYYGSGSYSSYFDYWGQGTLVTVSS VL: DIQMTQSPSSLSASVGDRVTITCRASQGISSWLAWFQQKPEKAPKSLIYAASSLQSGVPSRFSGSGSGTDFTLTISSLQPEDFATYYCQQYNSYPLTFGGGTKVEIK as well.
0.08

Try this binder next: HuMab-CD74-005-mcMMAF (antibody, IgG1, V domains shown, drug-linker mcMMAF alkylated to the cysteines of the reduced antibody (DAR 3.9-4.0), Antibody-drug conjugate of HuMab-CD74-005 (IgG1,kappa); also called mcMMAF-conjugate of HuMab-CD74-005) VH: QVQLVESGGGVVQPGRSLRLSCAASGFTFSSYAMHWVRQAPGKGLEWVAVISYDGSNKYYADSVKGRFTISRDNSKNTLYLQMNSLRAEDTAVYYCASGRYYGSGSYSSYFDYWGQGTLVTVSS VL: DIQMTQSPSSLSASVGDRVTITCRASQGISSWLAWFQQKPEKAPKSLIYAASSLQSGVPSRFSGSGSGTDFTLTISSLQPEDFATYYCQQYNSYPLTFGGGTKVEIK
0.03

What do you have for HuMab-CD74-011-vcMMAE (antibody, IgG1, V domains shown, drug-linker vcMMAE alkylated to the cysteines of the reduced antibody (DAR 3.8-3.9), Antibody-drug conjugate of HuMab-CD74-011 (IgG1,kappa); also called vcMMAE-conjugated HuMab-CD74-011) VH: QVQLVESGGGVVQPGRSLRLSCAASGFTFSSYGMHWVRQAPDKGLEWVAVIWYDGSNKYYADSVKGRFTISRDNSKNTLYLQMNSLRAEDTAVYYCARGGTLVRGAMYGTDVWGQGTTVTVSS VL: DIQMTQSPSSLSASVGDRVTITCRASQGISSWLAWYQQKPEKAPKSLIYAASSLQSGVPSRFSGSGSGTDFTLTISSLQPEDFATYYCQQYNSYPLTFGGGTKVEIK ?
0.02

Same lookup for HuMab-CD74-006-mcMMAF (antibody, IgG1, V domains shown, drug-linker mcMMAF alkylated to the cysteines of the reduced antibody (DAR 3.7-4.1), Antibody-drug conjugate of HuMab-CD74-006 (IgG1,kappa)) VH: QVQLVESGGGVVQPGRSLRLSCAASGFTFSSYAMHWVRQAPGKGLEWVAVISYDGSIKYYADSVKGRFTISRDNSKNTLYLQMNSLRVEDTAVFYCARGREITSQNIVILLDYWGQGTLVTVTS VL: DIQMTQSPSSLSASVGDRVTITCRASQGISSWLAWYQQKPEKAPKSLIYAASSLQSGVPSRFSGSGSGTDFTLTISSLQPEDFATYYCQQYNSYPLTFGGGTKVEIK , please.
0.01

Also check HuMab-CD74-011-mcMMAF (antibody, IgG1, V domains shown, drug-linker mcMMAF alkylated to the cysteines of the reduced antibody (DAR 3.9 by HIC), Antibody-drug conjugate of HuMab-CD74-011 (IgG1,kappa)) VH: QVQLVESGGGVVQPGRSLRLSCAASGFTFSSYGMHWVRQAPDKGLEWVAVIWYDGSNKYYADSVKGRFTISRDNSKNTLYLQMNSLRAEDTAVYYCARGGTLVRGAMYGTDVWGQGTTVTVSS VL: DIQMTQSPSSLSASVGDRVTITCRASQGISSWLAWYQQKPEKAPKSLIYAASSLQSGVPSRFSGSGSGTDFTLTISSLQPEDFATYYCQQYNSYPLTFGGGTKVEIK
0.01
